# experimental target: T1, FZD2 CRD (Homo sapiens, UniProt Q14332)
# T1 construct: D35-P161; GPI anchor signal (C); expressed in transfected cells; host or cells: CHO cells, lentiviral pLenti-puro
# assay protocol: Immunofluorescence of anti-FZD5 Fab binding to CHO cells overexpressing Frizzled CRD
# Set-up: key: −: no binding; +: very weak binder; ++: weak binder; +++: good binder; ++++: very good binder
# Method: Plasmids: pLCKO lentiviral vector used for knockout (TKO) library construction and expression of individual gRNAs was constructed as described previously (Hart et al., 2015). Briefly, single guide RNA (sgRNA) scaffold was amplified from px330 (Addgene 42230) and cloned into pLKO.TRC005 lentiviral vector (Broad Institute, Cambridge, Mass.) using AgeI/EcoRI restriction sites. BfuAI sites were added at the 5′ end of the sgRNA scaffold for cloning the TKO library or individual gRNA target sequences. […]
observation type: Immunofluorescence binding, Frizzled CRD overexpressed on CHO cells: FZD2

molecule	reported measurement
Fab-2899: anti-FZD5 Fab with antibody variable region Fv-2899; CDR SEQ ID NOs: 35, 36, 38, 77, 114, 153 (antibody, V domains shown) VH: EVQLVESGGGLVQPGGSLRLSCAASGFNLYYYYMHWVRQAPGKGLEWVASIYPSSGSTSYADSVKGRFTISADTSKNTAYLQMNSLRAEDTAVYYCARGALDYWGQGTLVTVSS VL: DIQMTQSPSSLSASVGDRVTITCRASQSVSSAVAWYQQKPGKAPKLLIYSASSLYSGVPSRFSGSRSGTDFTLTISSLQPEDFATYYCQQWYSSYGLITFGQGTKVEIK	+++
Fab-2918: anti-FZD5 Fab with antibody variable region Fv-2918; CDR SEQ ID NOs: 35, 36, 57, 96, 133, 169 (antibody, V domains shown) VH: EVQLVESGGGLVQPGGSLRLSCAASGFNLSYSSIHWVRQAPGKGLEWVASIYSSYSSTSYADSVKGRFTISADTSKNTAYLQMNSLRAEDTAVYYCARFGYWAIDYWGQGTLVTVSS VL: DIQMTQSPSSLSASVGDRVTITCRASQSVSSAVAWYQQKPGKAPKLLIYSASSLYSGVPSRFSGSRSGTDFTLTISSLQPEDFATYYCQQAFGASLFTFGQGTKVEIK	−
Fab-2910: anti-FZD5 Fab with antibody variable region Fv-2910; CDR SEQ ID NOs: 35, 36, 49, 88, 125, 162 (antibody, V domains shown) VH: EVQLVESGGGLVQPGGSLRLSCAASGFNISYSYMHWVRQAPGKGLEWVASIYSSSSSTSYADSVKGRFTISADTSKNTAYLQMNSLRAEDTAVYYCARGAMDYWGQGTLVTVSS VL: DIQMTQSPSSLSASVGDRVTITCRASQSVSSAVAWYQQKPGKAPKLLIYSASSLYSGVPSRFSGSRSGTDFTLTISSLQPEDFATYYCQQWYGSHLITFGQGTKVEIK	−
Fab-2914: anti-FZD5 Fab with antibody variable region Fv-2914; CDR SEQ ID NOs: 35, 36, 53, 92, 129, 162 (antibody, V domains shown) VH: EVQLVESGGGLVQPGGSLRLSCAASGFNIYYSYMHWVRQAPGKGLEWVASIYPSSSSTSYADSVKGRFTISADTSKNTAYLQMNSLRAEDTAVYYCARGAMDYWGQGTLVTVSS VL: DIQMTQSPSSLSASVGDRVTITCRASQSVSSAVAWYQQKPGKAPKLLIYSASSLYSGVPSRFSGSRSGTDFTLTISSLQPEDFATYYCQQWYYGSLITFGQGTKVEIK	+++

Working through the 4 molecules below one at a time, give Immunofluorescence binding, Frizzled CRD overexpressed on CHO cells: FZD2 for each.
1. Fab-2932: anti-FZD5 Fab with antibody variable region Fv-2932; CDR SEQ ID NOs: 35, 36, 71, 108, 147, 153 (antibody, V domains shown) VH: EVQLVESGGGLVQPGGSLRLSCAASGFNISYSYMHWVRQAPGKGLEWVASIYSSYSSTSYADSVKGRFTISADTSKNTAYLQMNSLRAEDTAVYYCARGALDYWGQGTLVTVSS VL: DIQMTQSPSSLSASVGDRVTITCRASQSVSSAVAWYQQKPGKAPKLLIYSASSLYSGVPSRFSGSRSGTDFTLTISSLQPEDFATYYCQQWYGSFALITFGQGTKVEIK
2. Fab-2906: anti-FZD5 Fab with antibody variable region Fv-2906; CDR SEQ ID NOs: 35, 36, 45, 84, 121, 158 (antibody, V domains shown) VH: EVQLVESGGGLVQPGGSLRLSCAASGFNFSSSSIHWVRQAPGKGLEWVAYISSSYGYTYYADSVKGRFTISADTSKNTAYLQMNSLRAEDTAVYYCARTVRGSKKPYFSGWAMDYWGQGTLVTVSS VL: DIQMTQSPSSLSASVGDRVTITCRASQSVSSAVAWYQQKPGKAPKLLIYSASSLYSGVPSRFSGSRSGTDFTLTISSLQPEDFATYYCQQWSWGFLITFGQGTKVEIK
3. Fab-2919: anti-FZD5 Fab with antibody variable region Fv-2919; CDR SEQ ID NOs: 35, 36, 58, 97, 134, 155 (antibody, V domains shown) VH: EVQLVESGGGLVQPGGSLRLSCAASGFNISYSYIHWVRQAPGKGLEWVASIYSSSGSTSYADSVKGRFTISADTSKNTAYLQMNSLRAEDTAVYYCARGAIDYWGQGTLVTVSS VL: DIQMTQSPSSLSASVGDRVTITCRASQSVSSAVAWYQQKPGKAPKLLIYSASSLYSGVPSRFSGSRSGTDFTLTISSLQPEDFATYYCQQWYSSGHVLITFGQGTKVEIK
4. Fab-2928: anti-FZD5 Fab with antibody variable region Fv-2928; CDR SEQ ID NOs: 35, 36, 67, 105, 143, 175 (antibody, V domains shown) VH: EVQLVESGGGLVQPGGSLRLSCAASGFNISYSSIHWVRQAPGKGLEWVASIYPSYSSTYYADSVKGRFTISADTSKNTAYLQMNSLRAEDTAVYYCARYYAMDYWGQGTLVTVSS VL: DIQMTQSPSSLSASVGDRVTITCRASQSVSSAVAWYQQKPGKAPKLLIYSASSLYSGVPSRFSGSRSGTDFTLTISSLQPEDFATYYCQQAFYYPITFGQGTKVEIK

["−", "−", "−", "−"]
